Target: 15-hydroxyprostaglandin dehydrogenase [NAD(+)] (Homo sapiens)
Assay: qHTS Assay for Inhibitors of HPGD (15-Hydroxyprostaglandin Dehydrogenase); further: on the % scale 0 is the no-effect control and ±100 the full control effect
Conditions: purified HPGD, NADH fluorescence kinetic, PGE2 substrate; active compounds read low
About 6,500 (4.3%) of roughly 150,000 compounds were called active. About 12% were inconclusive and are not listed. For the sample, actives were picked, then their nearest neighbours and some compounds at random.
experimental.endpoint: activity change, negative = inhibition (%)
// note: answer is a bare numeric in %

Below are worked cases with known answers.
>>> measured("O=C(NCCN1CCOCC1)c1ccc2c(c1)ncn2C1CCCC1")
-2.32
>>> measured("COc1ccccc1-n1c(C)nc2cc(C(=O)NCc3ccc4c(c3)OCO4)ccc21")
-21.3
>>> measured("Cc1ccccc1CN(c1ccc(C(=O)NCC2CCCO2)cc1)S(C)(=O)=O (stereo unspecified)")
-4.02
>>> measured("COc1ccccc1N1CCN(C(=O)C(=O)N/N=C/c2ccccc2F)CC1")
-6.15

Any idea what activity change, negative = inhibition came out for `COc1ccc(S(=O)(=O)NC(C)C)cc1C(=O)NC1CCCCC1` on 15-hydroxyprostaglandin dehydrogenase [NAD(+)] (Homo sapiens)?
-17.6

Request - read-out activity change, negative = inhibition | tested on 15-hydroxyprostaglandin dehydrogenase [NAD(+)] (Homo sapiens) | compound `COc1ccc(NS(=O)(=O)c2ccc(NC(C)=O)cc2)cc1OC`
-1.98

* * *

Reported activity change, negative = inhibition is given for each of the following compounds.
Biological target: 15-hydroxyprostaglandin dehydrogenase [NAD(+)] (Homo sapiens)
Assay: qHTS Assay for Inhibitors of HPGD (15-Hydroxyprostaglandin Dehydrogenase); further: on the % scale 0 is the no-effect control and ±100 the full control effect
Conditions: purified HPGD, NADH fluorescence kinetic, PGE2 substrate; active compounds read low
Hit rate of the full screen: of about 150,000 compounds, about 6,500 (4.3%) were called active. About 12% were inconclusive and are not listed. The list comes from a sample in which actives are over-represented; it also holds close analogues and randomly drawn compounds.
Numeric answer only, unit % assumed.

>>> measured("Cc1cnc(NC(=O)CSc2nnc(-c3ccccc3)n2Cc2ccccc2)s1")
-9.73
>>> measured("Cc1cnc(NC(=O)CSc2c(Cl)cccc2Cl)s1")
-12.6
>>> measured("COCCn1c(=S)[nH]c2cc(C(=O)NCCc3ccc(OC)c(OC)c3)ccc2c1=O")
-4.68
>>> measured("CC(=O)NS(=O)(=O)c1ccc(NC(=O)C2C3C=CC(C3)C2C(=O)O)cc1 (stereo not given)")
-3.59

Please examine the following record next.
Report activity change, negative = inhibition for `COc1ccc2c(c1)c(=O)c(C(=O)c1ccc(Cl)cc1)cn2CC(=O)Nc1ccc(F)cc1` please.
-6.67

* * *

Target: 15-hydroxyprostaglandin dehydrogenase [NAD(+)] (Homo sapiens) (UniProt P15428)
Sequence (P15428 whole entry, looked up): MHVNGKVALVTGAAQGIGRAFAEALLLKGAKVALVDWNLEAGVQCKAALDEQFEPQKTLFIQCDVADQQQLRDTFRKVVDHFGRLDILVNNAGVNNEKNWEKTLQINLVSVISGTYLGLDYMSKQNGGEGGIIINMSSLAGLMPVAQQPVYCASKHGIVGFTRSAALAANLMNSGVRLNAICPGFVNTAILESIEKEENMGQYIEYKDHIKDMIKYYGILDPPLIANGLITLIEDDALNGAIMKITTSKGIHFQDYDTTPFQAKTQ
Assay: qHTS Assay for Inhibitors of HPGD (15-Hydroxyprostaglandin Dehydrogenase); further: on the % scale 0 is the no-effect control and ±100 the full control effect
Conditions: purified HPGD, NADH fluorescence kinetic, PGE2 substrate; active compounds read low
Excerpt: Human 15-Hydroxyprostaglandin dehydrogenase (HPGD) catalyzes the inactivation of prostaglandin E2, and plays a major role in cancer biology by antagonizing the oncogenic potential of cyclooxygenase type 2 (COX2). Assays are available, based on absorbance/fluorescence increase of NADH with the substrate 15-OH prostaglandin E2. References 1. […] An increase in the fluorescence intensity due to conversion of NAD+ to NADH was used to measure the enzyme activity. […]
The campaign covered roughly 150,000 compounds. About 6,500 (4.3%) were called active. Another 12% or so got no clear call; they are omitted. The entries come from a sample that favours actives as a whole.
Field 'label' (enum: met / not met). Set to met when activity change, negative = inhibition is strictly under -10%; else not met.

>>> class_assignment("CCc1ccc(NC(=O)CC2C(=O)NCCN2C(=S)Nc2ccccc2)cc1 (stereo unspecified)")
"met"
>>> class_assignment("CC(CCO)Nc1nc2c([nH]1)c(=O)n(C)c(=O)n2C (stereo unspecified)")
"met"
>>> class_assignment("CCCSc1nc2c(c(=O)n(C)c(=O)n2C)n1Cc1ccc(C)cc1")
"not met"
>>> class_assignment("O=C(COC(=O)Cc1ccc(F)cc1)Nc1cc(S(=O)(=O)N2CCOCC2)ccc1N1CCCC1")
"not met"
>>> class_assignment("N/C(=N\\OC(=O)CC1CCCCC1)c1ccccc1")
"met"

Now, please, on to the next molecule.
Consider the molecule `Cc1ccc(S(=O)(=O)N2CCOCC2)cc1C(=O)NC(=S)N(Cc1ccccc1)C(C)C` . Is its activity change, negative = inhibition strictly less than -10%?
met

* * *

Target: 15-hydroxyprostaglandin dehydrogenase [NAD(+)] (Homo sapiens) (UniProt P15428)
Test: qHTS Assay for Inhibitors of HPGD (15-Hydroxyprostaglandin Dehydrogenase); further: on the % scale 0 is the no-effect control and ±100 the full control effect
Details: purified HPGD, NADH fluorescence kinetic, PGE2 substrate; active compounds read low
From the text: Human 15-Hydroxyprostaglandin dehydrogenase (HPGD) catalyzes the inactivation of prostaglandin E2, and plays a major role in cancer biology by antagonizing the oncogenic potential of cyclooxygenase type 2 (COX2). Assays are available, based on absorbance/fluorescence increase of NADH with the substrate 15-OH prostaglandin E2. References 1. […] An increase in the fluorescence intensity due to conversion of NAD+ to NADH was used to measure the enzyme activity. […]
In all, about 150,000 compounds went through this assay and about 6,500 (4.3%) were called active. Not shown: some 12% with an inconclusive outcome. The list comes from a sample in which actives are over-represented; it also holds close analogues and randomly drawn compounds.
The reader will find reported activity change, negative = inhibition values listed item by item below.
Numeric answer only, unit % assumed.

Some solved cases for reference:
>>> measured("O=C(O)c1ccc(/C=N/NC(=O)c2ccc(Br)cc2)cc1")
-2.06
>>> measured("Cn1cnc([N+](=O)[O-])c1Nc1ccccc1O")
-2.73
>>> measured("COc1cccc(/C=N/Nc2ncc(C(F)(F)F)cc2Cl)c1O")
-13.5
>>> measured("Cc1nn(C)c(Oc2ccccc2)c1[N+](=O)[O-]")
-7.95
>>> measured("O=c1c2c(ncn1Cc1ccccc1)nc1n2CCC1")
-17.9

In the following, a different compound is considered.
Consider the compound shown here: `CCOc1ccc(C(=O)NC(=S)Nc2ccc(NC(=O)C(C)C)cc2)cc1[N+](=O)[O-]` What is its recorded activity change, negative = inhibition?
-3.94

* * *

Target: 15-hydroxyprostaglandin dehydrogenase [NAD(+)] (Homo sapiens) (UniProt P15428)
Test: qHTS Assay for Inhibitors of HPGD (15-Hydroxyprostaglandin Dehydrogenase); further: on the % scale 0 is the no-effect control and ±100 the full control effect
Details: purified HPGD, NADH fluorescence kinetic, PGE2 substrate; active compounds read low
Hit rate of the full screen: of about 150,000 compounds, about 6,500 (4.3%) were called active. Roughly 12% stayed inconclusive and do not appear here. The list comes from a sample in which actives are over-represented; it also holds close analogues and randomly drawn compounds.
Strictly below -10% in activity change, negative = inhibition: yes (1). Otherwise: no (0).

>>> class_assignment("COc1ccc(NC(=O)CSc2nc(NS(=O)(=O)c3ccc(C)cc3)cc(=O)[nH]2)cc1")
"yes (1)"

Decide: activity change, negative = inhibition of COc1ccc(/C=C/C(=O)NC(=S)NN2CCCCC2c2cccnc2)cc1 (stereo not given) strictly below -10%?
yes (1)

Would you kindly verify if activity change, negative = inhibition of `CCOc1ccc2nc(NC(=O)c3cc([N+](=O)[O-])ccc3N3CCOCC3)sc2c1` is strictly less than -10%?
no (0)

Given the entry `COc1cccc(NC(=S)NC(=O)c2c(Cl)c(C)nn2C)c1` , would its reported activity change, negative = inhibition be below -10%?
yes (1)

Quick check: does CC(CNc1ccc([N+](=O)[O-])c2cccnc12)Nc1c([N+](=O)[O-])cc(C(F)(F)F)cc1[N+](=O)[O-] (stereo not given) have activity change, negative = inhibition under -10%?
yes (1)

Would you kindly verify if activity change, negative = inhibition of `Cc1cccc(NC(=O)CSc2nc3[nH]ncc3c(=O)[nH]2)c1` is strictly less than -10%?
yes (1)

Here's an entry: `O=C(Nc1nnc(SCc2ccccc2)s1)c1ccco1` . Is its activity change, negative = inhibition below -10%?
yes (1)

Here's an entry: Cc1ccc(-c2noc(-c3ccccc3C(=O)NCC3CCCO3)n2)cc1 (stereo not given) . Is its activity change, negative = inhibition below -10%?
no (0)

Input `Cc1ccc(S(=O)(=O)N(NC2=NS(=O)(=O)c3ccccc32)C(=O)c2ccccc2)cc1` ; condition: activity change, negative = inhibition strictly below -10%. Does it hold?
no (0)

Confirm or reject: activity change, negative = inhibition of `C=CCNC(=S)NNC(=O)c1ccc(Br)o1` lies strictly below -10%
yes (1)

* * *

Biological target: 15-hydroxyprostaglandin dehydrogenase [NAD(+)] (Homo sapiens)
Assay: qHTS Assay for Inhibitors of HPGD (15-Hydroxyprostaglandin Dehydrogenase); further: on the % scale 0 is the no-effect control and ±100 the full control effect
Conditions: purified HPGD, NADH fluorescence kinetic, PGE2 substrate; active compounds read low
From the text: Human 15-Hydroxyprostaglandin dehydrogenase (HPGD) catalyzes the inactivation of prostaglandin E2, and plays a major role in cancer biology by antagonizing the oncogenic potential of cyclooxygenase type 2 (COX2). Assays are available, based on absorbance/fluorescence increase of NADH with the substrate 15-OH prostaglandin E2. References 1. […] An increase in the fluorescence intensity due to conversion of NAD+ to NADH was used to measure the enzyme activity. […]
About 6,500 (4.3%) of roughly 150,000 compounds were called active. Not shown: some 12% with an inconclusive outcome. What follows is part of a selection rich in actives, with near analogues and random picks from the rest.
// activity change, negative = inhibition lookup, one value per entry
Express the result in % but write the number alone.

Here are 6 compounds together with their reported answers.
>>> measured("Cc1ccc(Cn2nnc3c(=O)n(CC(=O)N4CCCCC4)cnc32)cc1")
-22
>>> measured("CCOc1cc(CNCc2ccccn2)ccc1OCC(=O)NC(C)(C)C")
-9.37
>>> measured("CCOC(=O)NC(=O)C(=CNc1cccc(OC)c1)C(=O)NC(=O)OCC")
-21.8
>>> measured("CC(CNC(=O)c1ccc(Br)o1)NC(=O)c1ccc(Br)o1 (stereo unspecified)")
-8.51
>>> measured("CCC(C)NC(=O)CCCc1ccccc1 (stereo unspecified)")
-18.7
>>> measured("CC1CCc2sc(C(=O)N/N=C/C3CCCCC3)cc2C1 (stereo unspecified)")
-7.97

Any idea what its activity change, negative = inhibition is? The compound is CCC(C)(C(=O)Nc1ccccc1C)N(C(=O)CNC(C)=O)c1ccc(C)cc1 (stereo unspecified)
1.96

Can you share its activity change, negative = inhibition? I mean this compound: `COc1ccc(CC(=O)Nc2cc(S(=O)(=O)N3CCCCC3)ccc2N2CCN(C)CC2)cc1`
-7.18

Fill in the blank: the reported activity change, negative = inhibition of S=C(NCC1COc2ccccc2O1)Nc1ccc(Br)cc1 (stereo unspecified) is ____.
-26.7

Which value of activity change, negative = inhibition has been reported for `Cn1cnc(C(F)(F)F)c1-c1ccc([N+](=O)[O-])cc1` in the records?
-0.963

What measured activity change, negative = inhibition goes with `COc1ccc(-n2nnc3c(=O)n(CC(=O)N4CCC(Cc5ccccc5)CC4)cnc32)cc1` ?
-23.8
